# System: S.pneumoniae SR16675
# Assay Text: MIC by agar dilution method
# Format: cell-based
# Study Conditions: S.pneumoniae SR16675, G(+)
Quantity: MIC (µg/mL)
Express your answer in µg/mL, writing the number without its unit.

Would you please look over these solved cases?
>>> observed_result("CCON=C(C(=O)NC1C(=O)N2C(C(=O)[O-])=C(C[n+]3cccc4c3ncn4CCCN)CSC12)c1nsc(N)n1.Cl (centres unmarked)")
0.78
>>> observed_result("Cl.NCCCn1cnc2c1ccc[n+]2CC1=C(C(=O)[O-])N2C(=O)C(NC(=O)C(=NOCF)c3nsc(N)n3)C2SC1 (centres unmarked)")
0.78
>>> observed_result("CCON=C(C(=O)NC1C(=O)N2C(C(=O)[O-])=C(C[n+]3cccc4c3ncn4C3CCNC3)CSC12)c1nsc(N)n1.Cl (centres unmarked)")
0.39
>>> observed_result("CCON=C(C(=O)NC1C(=O)N2C(C(=O)[O-])=C(C[n+]3cccc4c3ncn4CCCNC)CSC12)c1nsc(N)n1.Cl (centres unmarked)")
0.78

Let us move to another entry and its MIC.
Param item = CNCCCn1cnc2c1ccc[n+]2CC1=C(C(=O)[O-])N2C(=O)C(NC(=O)C(=NOCF)c3nsc(N)n3)C2SC1.Cl (centres unmarked) ; retrieve measured MIC.
0.78

----------
Known MIC of a selection of molecules
# System: P.aeruginosa SR24
# Assay Text: MIC by agar dilution method
# Type: cell-based
# Study Conditions: P.aeruginosa SR24, G(−)
Express your answer in µg/mL, writing the number without its unit.

Param item = CCON=C(C(=O)NC1C(=O)N2C(C(=O)[O-])=C(C[n+]3cccc4c3ncn4CCCNC)CSC12)c1nsc(N)n1.Cl (centres unmarked) [Ex6-2] ; retrieve measured MIC.
1.56

Param item = CCON=C(C(=O)NC1C(=O)N2C(C(=O)[O-])=C(C[n+]3cccc4c3ncn4CCCN)CSC12)c1nsc(N)n1.Cl (centres unmarked) [Ex5-2] ; retrieve measured MIC.
0.78

Param item = CNCCCn1cnc2c1ccc[n+]2CC1=C(C(=O)[O-])N2C(=O)C(NC(=O)C(=NOCF)c3nsc(N)n3)C2SC1.Cl (centres unmarked) [Ex6-3] ; retrieve measured MIC.
3.13

Param item = Cl.NCCCn1cnc2c1ccc[n+]2CC1=C(C(=O)[O-])N2C(=O)C(NC(=O)C(=NOCF)c3nsc(N)n3)C2SC1 (centres unmarked) [Ex5-3] ; retrieve measured MIC.
1.56

Param item = CCON=C(C(=O)NC1C(=O)N2C(C(=O)[O-])=C(C[n+]3cccc4c3ncn4C3CCNC3)CSC12)c1nsc(N)n1.Cl (centres unmarked) [Ex4-1] ; retrieve measured MIC.
0.78

----------
Known MIC of a selection of compounds
# Tested on: E.cloacae ATCC 13047
# Assay Text: MIC by agar dilution method
# Assay type: cell-based
# Study Conditions: E.cloacae ATCC 13047, G(−)
Express your answer in µg/mL, writing the number without its unit.

Would you please look over these solved cases?
>>> observed_result("CCON=C(C(=O)NC1C(=O)N2C(C(=O)[O-])=C(C[n+]3cccc4c3ncn4CCCN)CSC12)c1nsc(N)n1.Cl (centres unmarked)")
0.78
>>> observed_result("CCON=C(C(=O)NC1C(=O)N2C(C(=O)[O-])=C(C[n+]3cccc4c3ncn4CCCNC)CSC12)c1nsc(N)n1.Cl (centres unmarked)")
0.78
>>> observed_result("CNCCCn1cnc2c1ccc[n+]2CC1=C(C(=O)[O-])N2C(=O)C(NC(=O)C(=NOCF)c3nsc(N)n3)C2SC1.Cl (centres unmarked)")
0.78
>>> observed_result("Cl.NCCCn1cnc2c1ccc[n+]2CC1=C(C(=O)[O-])N2C(=O)C(NC(=O)C(=NOCF)c3nsc(N)n3)C2SC1 (centres unmarked)")
0.39

Let us move to another entry and its MIC.
Param item = CCON=C(C(=O)NC1C(=O)N2C(C(=O)[O-])=C(C[n+]3cccc4c3ncn4C3CCNC3)CSC12)c1nsc(N)n1.Cl (centres unmarked) ; retrieve measured MIC.
0.78

----------
# System: P.aeruginosae SR5393
# Assay Text: MIC by agar dilution method
# Format: cell-based
# Study Conditions: P.aeruginosae SR5393, G(−)
Quantity: MIC (µg/mL)
Express your answer in µg/mL, writing the number without its unit.

Would you please look over these solved cases?
>>> observed_result("CNCCCn1cnc2c1ccc[n+]2CC1=C(C(=O)[O-])N2C(=O)C(NC(=O)C(=NOCF)c3nsc(N)n3)C2SC1.Cl (centres unmarked)")
6.25
>>> observed_result("CCON=C(C(=O)NC1C(=O)N2C(C(=O)[O-])=C(C[n+]3cccc4c3ncn4CCCNC)CSC12)c1nsc(N)n1.Cl (centres unmarked)")
6.25
>>> observed_result("CCON=C(C(=O)NC1C(=O)N2C(C(=O)[O-])=C(C[n+]3cccc4c3ncn4CCCN)CSC12)c1nsc(N)n1.Cl (centres unmarked)")
3.13

Recall the recorded MIC for CCON=C(C(=O)NC1C(=O)N2C(C(=O)[O-])=C(C[n+]3cccc4c3ncn4C3CCNC3)CSC12)c1nsc(N)n1.Cl (centres unmarked) with P.aeruginosae SR5393 and state it.
3.13

Recall the recorded MIC for Cl.NCCCn1cnc2c1ccc[n+]2CC1=C(C(=O)[O-])N2C(=O)C(NC(=O)C(=NOCF)c3nsc(N)n3)C2SC1 (centres unmarked) with P.aeruginosae SR5393 and state it.
6.25

----------
# System: E.coli SR5028
# Assay Text: MIC by agar dilution method
# Type: cell-based
# Study Conditions: E.coli SR5028, G(−)
Quantity: MIC

Would you please look over these solved cases?
>>> observed_result("CCON=C(C(=O)NC1C(=O)N2C(C(=O)[O-])=C(C[n+]3cccc4c3ncn4CCCNC)CSC12)c1nsc(N)n1.Cl (centres unmarked)")
"3.13 µg/mL"
>>> observed_result("CNCCCn1cnc2c1ccc[n+]2CC1=C(C(=O)[O-])N2C(=O)C(NC(=O)C(=NOCF)c3nsc(N)n3)C2SC1.Cl (centres unmarked)")
"1.56 µg/mL"
>>> observed_result("Cl.NCCCn1cnc2c1ccc[n+]2CC1=C(C(=O)[O-])N2C(=O)C(NC(=O)C(=NOCF)c3nsc(N)n3)C2SC1 (centres unmarked)")
"1.56 µg/mL"

Param item = CCON=C(C(=O)NC1C(=O)N2C(C(=O)[O-])=C(C[n+]3cccc4c3ncn4CCCN)CSC12)c1nsc(N)n1.Cl (centres unmarked) ; retrieve measured MIC.
3.13 µg/mL

Param item = CCON=C(C(=O)NC1C(=O)N2C(C(=O)[O-])=C(C[n+]3cccc4c3ncn4C3CCNC3)CSC12)c1nsc(N)n1.Cl (centres unmarked) ; retrieve measured MIC.
3.13 µg/mL

----------
# Test system: E.faecalis SR1004
# Assay Text: MIC by agar dilution method
# Type: cell-based
# Study Conditions: E.faecalis SR1004, G(+)
Quantity: MIC (µg/mL)
Express your answer in µg/mL, writing the number without its unit.

Would you please look over these solved cases?
>>> observed_result("CNCCCn1cnc2c1ccc[n+]2CC1=C(C(=O)[O-])N2C(=O)C(NC(=O)C(=NOCF)c3nsc(N)n3)C2SC1.Cl (centres unmarked) [Ex6-3]")
50
>>> observed_result("Cl.NCCCn1cnc2c1ccc[n+]2CC1=C(C(=O)[O-])N2C(=O)C(NC(=O)C(=NOCF)c3nsc(N)n3)C2SC1 (centres unmarked) [Ex5-3]")
100

Param item = CCON=C(C(=O)NC1C(=O)N2C(C(=O)[O-])=C(C[n+]3cccc4c3ncn4C3CCNC3)CSC12)c1nsc(N)n1.Cl (centres unmarked) [Ex4-1] ; retrieve measured MIC.
50

Param item = CCON=C(C(=O)NC1C(=O)N2C(C(=O)[O-])=C(C[n+]3cccc4c3ncn4CCCN)CSC12)c1nsc(N)n1.Cl (centres unmarked) [Ex5-2] ; retrieve measured MIC.
50

Param item = CCON=C(C(=O)NC1C(=O)N2C(C(=O)[O-])=C(C[n+]3cccc4c3ncn4CCCNC)CSC12)c1nsc(N)n1.Cl (centres unmarked) [Ex6-2] ; retrieve measured MIC.
50

----------
# System: S.pneumoniae Type 1
# Assay Text: MIC by agar dilution method
# Format: cell-based
# Study Conditions: S.pneumoniae Type 1, G(+)
# Method: The minimal inhibitory concentration (MIC) of compound (I) against various bacteria was determined by an agar dilution method. As reference compounds, used were cefozopran hydrochloride (CZOP) described in JP(A) Kokai H03-47189, cefoselis sulfate (CFSL) described in JP(A) Kokai H07-196665 and WO97/41128, compound A of which 3-side chain is a type of imidazo[4,5-c]pyridiniummethyl, and vancomycin. […]
Known MIC of a selection of compounds
Express your answer in µg/mL, writing the number without its unit.

>>> observed_result("CNCCCn1cnc2c1ccc[n+]2CC1=C(C(=O)[O-])N2C(=O)C(NC(=O)C(=NOCF)c3nsc(N)n3)C2SC1.Cl (centres unmarked) [Ex6-3]")
0.025
>>> observed_result("CCON=C(C(=O)NC1C(=O)N2C(C(=O)[O-])=C(C[n+]3cccc4c3ncn4C3CCNC3)CSC12)c1nsc(N)n1.Cl (centres unmarked) [Ex4-1]")
0.025
>>> observed_result("CCON=C(C(=O)NC1C(=O)N2C(C(=O)[O-])=C(C[n+]3cccc4c3ncn4CCCN)CSC12)c1nsc(N)n1.Cl (centres unmarked) [Ex5-2]")
0.025

Recall the recorded MIC for CCON=C(C(=O)NC1C(=O)N2C(C(=O)[O-])=C(C[n+]3cccc4c3ncn4CCCNC)CSC12)c1nsc(N)n1.Cl (centres unmarked) [Ex6-2] with S.pneumoniae Type 1 and state it.
0.025

Recall the recorded MIC for Cl.NCCCn1cnc2c1ccc[n+]2CC1=C(C(=O)[O-])N2C(=O)C(NC(=O)C(=NOCF)c3nsc(N)n3)C2SC1 (centres unmarked) [Ex5-3] with S.pneumoniae Type 1 and state it.
0.025
